Below are GI50 values measured for DU-145.
Could you give me the number in nM? Just the number is fine.

1. C=C1CCC2C3(C)COC(c4cn(-c5ccccc5)nc4-c4cccc([N+](=O)[O-])c4)OC3CCC2(C)C1CC=C1C(=O)OCC1O (stereo not shown) : 4110
2. C=C1CCC2C3(C)COC(c4cn(-c5ccccc5)nc4-c4ccccc4)OC3CCC2(C)C1CC=C1C(=O)OCC1O (stereo not shown) : 2050
3. C=C1CCC2C3(C)COC(c4cn(-c5ccccc5)nc4-c4ccc(Br)cc4)OC3CCC2(C)C1CC=C1C(=O)OCC1O (stereo not shown) : 1770
4. C=C1CCC2C3(C)COC(c4cn(-c5ccccc5)nc4-c4ccc(F)cc4)OC3CCC2(C)C1CC=C1C(=O)OCC1O (stereo not shown) : 1820
5. C=C1CCC2C3(C)COC(c4cn(-c5ccccc5)nc4-c4cccc(Cl)c4)OC3CCC2(C)C1CC=C1C(=O)OCC1O (stereo not shown) : 1880

Given the compound C=C1CCC2C3(C)COC(c4cn(-c5ccccc5)nc4-c4ccc(OC)cc4)OC3CCC2(C)C1CC=C1C(=O)OCC1O (stereo not shown) , what is its reported GI50?
2040

Follow-up entry: C=C1CCC2C3(C)COC(c4cn(-c5ccccc5)nc4-c4ccc(Cl)cc4)OC3CCC2(C)C1CC=C1C(=O)OCC1O (stereo not shown)
2050

Follow-up entry: C=C1CCC2C3(C)COC(c4cn(-c5ccccc5)nc4-c4ccc(C)cc4)OC3CCC2(C)C1CC=C1C(=O)OCC1O (stereo not shown)
2050

Follow-up entry: C=C1CCC2C3(C)COC(c4cn(-c5ccccc5)nc4-c4cccc(Br)c4)OC3CCC2(C)C1CC=C1C(=O)OCC1O (stereo not shown)
2120

Follow-up entry: C=C1CCC2C3(C)COC(c4cn(-c5ccccc5)nc4-c4cccc(F)c4)OC3CCC2(C)C1CC=C1C(=O)OCC1O (stereo not shown)
1970

* * *

# CC50 annotations
# System: PC-3
# condition_context: read-out: 50% lethal concentration (LC50); PC-3, Prostate

In the examples that follow, each entry is paired with its recorded CC50.
1. C=C1CCC2C3(C)COC(c4cn(-c5ccccc5)nc4-c4cccc(Cl)c4)OC3CCC2(C)C1CC=C1C(=O)OCC1O (stereo not drawn) [1d] : > 100 µM
2. C=C1CCC2C3(C)COC(c4cn(-c5ccccc5)nc4-c4cccc(F)c4)OC3CCC2(C)C1CC=C1C(=O)OCC1O (stereo not drawn) [1c] : > 100 µM

Moving on to the next molecule.
Give the reported CC50 for C=C1CCC2C3(C)COC(c4cn(-c5ccccc5)nc4-c4ccc(F)cc4)OC3CCC2(C)C1CC=C1C(=O)OCC1O (stereo not drawn) [1f] (system: PC-3).
> 100 µM

* * *

# CC50 annotations
# System: A549/ATCC
# condition_context: read-out: 50% lethal concentration (LC50), Non-Small Cell Lung

1. C=C1CCC2C3(C)COC(c4cn(-c5ccccc5)nc4-c4cccc([N+](=O)[O-])c4)OC3CCC2(C)C1CC=C1C(=O)OCC1O (stereo not shown) : > 100 µM

Moving on to the next compound.
Given the compound C=C1CCC2C3(C)COC(c4cn(-c5ccccc5)nc4-c4ccc(OC)cc4)OC3CCC2(C)C1CC=C1C(=O)OCC1O (stereo not shown) , what is its reported CC50?
62.2 µM

* * *

# Total growth inhibition (TGI) annotations
# System: NCI/ADR-RES
# condition_context: Ovarian
Could you give me the number in µM? Just the number is fine.

In the examples that follow, each entry is paired with its recorded Total growth inhibition (TGI).
1) C=C1CCC2C3(C)COC(c4cn(-c5ccccc5)nc4-c4ccc(Br)cc4)OC3CCC2(C)C1CC=C1C(=O)OCC1O (stereo not drawn) [1h] : 4.19
2) C=C1CCC2C3(C)COC(c4cn(-c5ccccc5)nc4-c4ccccc4)OC3CCC2(C)C1CC=C1C(=O)OCC1O (stereo not drawn) [1a] : 5.31
3) C=C1CCC2C3(C)COC(c4cn(-c5ccccc5)nc4-c4ccc(F)cc4)OC3CCC2(C)C1CC=C1C(=O)OCC1O (stereo not drawn) [1f] : 3.57

Given the molecule C=C1CCC2C3(C)COC(c4cn(-c5ccccc5)nc4-c4cccc(Cl)c4)OC3CCC2(C)C1CC=C1C(=O)OCC1O (stereo not drawn) [1d] , what is its reported Total growth inhibition (TGI)?
4.77

Follow-up entry: C=C1CCC2C3(C)COC(c4cn(-c5ccccc5)nc4-c4ccc(OC)cc4)OC3CCC2(C)C1CC=C1C(=O)OCC1O (stereo not drawn) [1j]
4.41

Follow-up entry: C=C1CCC2C3(C)COC(c4cn(-c5ccccc5)nc4-c4ccc(Cl)cc4)OC3CCC2(C)C1CC=C1C(=O)OCC1O (stereo not drawn) [1g]
4.24

Follow-up entry: C=C1CCC2C3(C)COC(c4cn(-c5ccccc5)nc4-c4cccc(Br)c4)OC3CCC2(C)C1CC=C1C(=O)OCC1O (stereo not drawn) [1e]
5.37

Follow-up entry: C=C1CCC2C3(C)COC(c4cn(-c5ccccc5)nc4-c4cccc(F)c4)OC3CCC2(C)C1CC=C1C(=O)OCC1O (stereo not drawn) [1c]
3.99

Follow-up entry: C=C1CCC2C3(C)COC(c4cn(-c5ccccc5)nc4-c4ccc(C)cc4)OC3CCC2(C)C1CC=C1C(=O)OCC1O (stereo not drawn) [1i]
3.71

* * *

# Tested on: HOP-62
# condition_context: read-out: 50% lethal concentration (LC50); HOP-62, Non-Small Cell Lung
readout: CC50

1) C=C1CCC2C3(C)COC(c4cn(-c5ccccc5)nc4-c4cccc(Br)c4)OC3CCC2(C)C1CC=C1C(=O)OCC1O (stereo not drawn) : > 100 µM
2) C=C1CCC2C3(C)COC(c4cn(-c5ccccc5)nc4-c4cccc([N+](=O)[O-])c4)OC3CCC2(C)C1CC=C1C(=O)OCC1O (stereo not drawn) : > 100 µM

Given the molecule C=C1CCC2C3(C)COC(c4cn(-c5ccccc5)nc4-c4ccc(C)cc4)OC3CCC2(C)C1CC=C1C(=O)OCC1O (stereo not drawn) , what is its reported CC50?
9.27 µM

* * *

# System: MALME-3M
# condition_context: Melanoma
# Total growth inhibition (TGI) annotations
Could you give me the number in µM? Just the number is fine.

1. C=C1CCC2C3(C)COC(c4cn(-c5ccccc5)nc4-c4ccc(Cl)cc4)OC3CCC2(C)C1CC=C1C(=O)OCC1O (stereo not shown) [1g] : 3.41
2. C=C1CCC2C3(C)COC(c4cn(-c5ccccc5)nc4-c4ccc(Br)cc4)OC3CCC2(C)C1CC=C1C(=O)OCC1O (stereo not shown) [1h] : 3.11
3. C=C1CCC2C3(C)COC(c4cn(-c5ccccc5)nc4-c4cccc(Br)c4)OC3CCC2(C)C1CC=C1C(=O)OCC1O (stereo not shown) [1e] : 3.45

Moving on to the next molecule.
Given the molecule C=C1CCC2C3(C)COC(c4cn(-c5ccccc5)nc4-c4ccc(F)cc4)OC3CCC2(C)C1CC=C1C(=O)OCC1O (stereo not shown) [1f] , what is its reported Total growth inhibition (TGI)?
3.02

* * *

# System: CCRF-CEM
# condition_context: read-out: 50% lethal concentration (LC50), Leukemia
# CC50 annotations

In the examples that follow, each entry is paired with its recorded CC50.
1. C=C1CCC2C3(C)COC(c4cn(-c5ccccc5)nc4-c4ccc(Br)cc4)OC3CCC2(C)C1CC=C1C(=O)OCC1O (stereo not shown) [1h] : > 100 µM
2. C=C1CCC2C3(C)COC(c4cn(-c5ccccc5)nc4-c4ccc(C)cc4)OC3CCC2(C)C1CC=C1C(=O)OCC1O (stereo not shown) [1i] : > 100 µM

Given the molecule C=C1CCC2C3(C)COC(c4cn(-c5ccccc5)nc4-c4cccc(F)c4)OC3CCC2(C)C1CC=C1C(=O)OCC1O (stereo not shown) [1c] , what is its reported CC50?
> 100 µM

Follow-up entry: C=C1CCC2C3(C)COC(c4cn(-c5ccccc5)nc4-c4cccc([N+](=O)[O-])c4)OC3CCC2(C)C1CC=C1C(=O)OCC1O (stereo not shown) [1b]
> 100 µM

Follow-up entry: C=C1CCC2C3(C)COC(c4cn(-c5ccccc5)nc4-c4cccc(Cl)c4)OC3CCC2(C)C1CC=C1C(=O)OCC1O (stereo not shown) [1d]
> 100 µM

Follow-up entry: C=C1CCC2C3(C)COC(c4cn(-c5ccccc5)nc4-c4ccc(F)cc4)OC3CCC2(C)C1CC=C1C(=O)OCC1O (stereo not shown) [1f]
> 100 µM

Follow-up entry: C=C1CCC2C3(C)COC(c4cn(-c5ccccc5)nc4-c4cccc(Br)c4)OC3CCC2(C)C1CC=C1C(=O)OCC1O (stereo not shown) [1e]
> 100 µM

Follow-up entry: C=C1CCC2C3(C)COC(c4cn(-c5ccccc5)nc4-c4ccc(OC)cc4)OC3CCC2(C)C1CC=C1C(=O)OCC1O (stereo not shown) [1j]
> 100 µM

Follow-up entry: C=C1CCC2C3(C)COC(c4cn(-c5ccccc5)nc4-c4ccc(Cl)cc4)OC3CCC2(C)C1CC=C1C(=O)OCC1O (stereo not shown) [1g]
> 100 µM

Follow-up entry: C=C1CCC2C3(C)COC(c4cn(-c5ccccc5)nc4-c4ccccc4)OC3CCC2(C)C1CC=C1C(=O)OCC1O (stereo not shown) [1a]
> 100 µM
